Attribute: 3D sphere count of PC3
- Test system: PC3
- Test name: In vitro sphere-forming assay (cancer stem cells), Prostosphere media
- Protocol conditions: drug 0.025 uM; Prostosphere media; 2000 cells/well; n = 6 ± S.D

Example entries and their recorded answers appear below.
3D sphere count of PC3 reading for COc1ccc(NC2=CC(=O)c3c(OCCCCN4CCOCC4)cccc3C2=O)cc1OC [Formula 41] : 63(±3)

3D sphere count of PC3 reading for COc1ccc(OC2=CC(=O)c3c(OCCN4CCOCC4)cccc3C2=O)cc1 [Formula 81] : 57(±5)

3D sphere count of PC3 reading for O=C1C(Nc2ccc3c(c2)OCO3)=CC(=O)c2c(OCC(=O)N3CCOCC3)cccc21 [Formula 71] : 53(±4)

3D sphere count of PC3 reading for O=C1C(Oc2ccc(F)c(F)c2)=CC(=O)c2c(OCCN3CCOCC3)cccc21 [Formula 76] : 58(±4)

3D sphere count of PC3 reading for O=C1C(Oc2ccc3c(c2)OCO3)=CC(=O)c2c(OCCN3CCOCC3)cccc21 [Formula 46] : 54(±4)

3D sphere count of PC3 reading for O=C1C(Oc2ccc3c(c2)OCO3)=CC(=O)c2c(OCCCCN3CCOCC3)cccc21 [Formula 47] : 46(±4)

3D sphere count of PC3 reading for O=C1C=C(OCCCCN2CCOCC2)C(=O)c2ccccc21 [Formula 67] : 56(±3)

3D sphere count of PC3 reading for COc1ccc(OC2=CC(=O)c3c(OCCN4CCOCC4)cccc3C2=O)cc1 [Formula 43] : 57(±5)

New cases:
3D sphere count of PC3 reading for O=C1C=C(Oc2ccc3c(c2)OCO3)C(=O)c2c(OCCN3CCOCC3)cccc21 [Formula 79] : 55(±3)

3D sphere count of PC3 reading for O=C1C(c2ccc3c(c2)OCO3)=CC(=O)c2c(OCCN3CCOCC3)cccc21 [Formula 1] : 65(±3)

====

- System: MDAMB231
- Test name: In vitro sphere-forming assay (cancer stem cells), Mammosphere media
- Protocol conditions: Homo sapiens, MDA-MB-231, read-out: % Viability of spheres (MDAMB231)
Readout name: viability at 25 µM
State the value with its unit after it.

viability at 25 µM reading for O=C1C(c2ccc3c(c2)OCO3)=CC(=O)c2c(OCCN3CCOCC3)cccc21 : 31%

viability at 25 µM reading for O=C1C(NC2CCCCC2)=CC(=O)c2c(OCCN3CCOCC3)cccc21 : 26%

viability at 25 µM reading for O=C1C=C(OCCCCCCN2CCOCC2)C(=O)c2ccccc21 : 32%

viability at 25 µM reading for O=C1C(Nc2ccc3c(c2)OCO3)=CC(=O)c2c(OCC(=O)N3CCOCC3)cccc21 : 13%

viability at 25 µM reading for O=C1C(Oc2ccc(F)c(F)c2)=CC(=O)c2c(OCCN3CCOCC3)cccc21 : 29%

New cases:
viability at 25 µM reading for O=C1C(Oc2ccc(F)cc2)=CC(=O)c2c(OCCN3CCOCC3)cccc21 : 17%

====

- System: MDAMB231
- Test name: Soft agar colony-formation assay, breast cancer
- Assay type: cell-based
- Protocol conditions: Soft Agar Assay, 1 week, Alamar Blue
Readout name: pIC50
Scale note: pIC50 = -log10(concentration in M).

The value of pIC50 recorded for N.N.[Cl][Pt][Cl] [Cisplatin, reference compound] when tested on MDAMB231 reads 4.45

====

Attribute: pIC50
- Test system: PC3
- Test name: In vitro antiproliferative assay (MTT assay), prostate cancer cell line
- Format: cell-based
- Protocol conditions: Homo sapiens, PC-3, MTT assay, PC3
- Protocol: MTT assay is a simple and sensitive assay where, metabolic reducing activity of the cells is measured. The increase of this activity in time is taken as a parameter of cell growth. If treatment with a drug impairs this increase, the action is a consequence of growth inhibition, cell killing or both. […] All cell lines were cultured in a 37° C. incubator with a 5% CO2 environment. Compounds were dissolved in DMSO with a concentration of 0.1M (stock solution). […]
Scale note: pIC50 = -log10(concentration in M).

Example entries and their recorded answers appear below.
pIC50 reading for COc1ccc(OC2=CC(=O)c3c(OCCCCN4CCOCC4)cccc3C2=O)cc1 [Formula 85] : 5.63

pIC50 reading for COc1ccc(OC2=CC(=O)c3c(OCCN4CCCCC4)cccc3C2=O)cc1 [Formula 84] : 6.31

pIC50 reading for O=C1C=C(Oc2ccc(F)c(F)c2)C(=O)c2c(OCCN3CCOCC3)cccc21 [Formula 83] : 6.14

New cases:
pIC50 reading for O=C1C(Oc2ccc3c(c2)OCO3)=CC(=O)c2c(OCCCCN3CCOCC3)cccc21 [Formula 82] : 6.24

====

Attribute: IC50
- System: Human lymphocytes
- Test name: Lymphocyte assay (MTT on normal cells)
- Assay type: cell-based
- Protocol conditions: Lymphocyte; human peripheral blood lymphocytes, MTT procedure
State the value with its unit after it.

Example entries and their recorded answers appear below.
IC50 reading for O=C1C(c2ccc3c(c2)OCO3)=CC(=O)c2c(OCCCC(=O)N3CCOCC3)cccc21 : 12.1 µM

IC50 reading for O=C1C(c2ccc3c(c2)OCO3)=CC(=O)c2c(OCCN3CCOCC3)cccc21 : 1.49 µM

IC50 reading for O=C1C=C(OCCCCN2CCOCC2)C(=O)c2ccccc21 : 5.15 µM

IC50 reading for COc1ccc(OC2=CC(=O)c3c(OCCN4CCOCC4)cccc3C2=O)cc1 : 10.8 µM

IC50 reading for O=C1C(c2ccc3c(c2)OCO3)=CC(=O)c2c(OCCCCN3CCOCC3)cccc21 : 11.5 µM

IC50 reading for O=C1C(Nc2ccc3c(c2)OCO3)=CC(=O)c2c(OCC(=O)N3CCOCC3)cccc21 : 25.2 µM

New cases:
IC50 reading for CCN(CC)CCNC(=O)COc1cccc2c1C(=O)C=C(Nc1ccc(OC)cc1)C2=O : 33 µM

IC50 reading for O=C(O)CCCOc1cccc2c1C(=O)C=C(Nc1ccc3c(c1)OCO3)C2=O : 5.41 µM

IC50 reading for COc1ccc(NC2=CC(=O)c3c(OCCN4CCOCC4)cccc3C2=O)cc1OC : 13.2 µM

IC50 reading for O=C1C=C(OCCCCCCN2CCOCC2)C(=O)c2ccccc21 : 5.58 µM

====

Attribute: viability at 25 µM
- Tested on: MDAMB231
- Test name: In vitro sphere-forming assay (cancer stem cells), Mammosphere media
- Protocol conditions: Homo sapiens, MDA-MB-231, read-out: % Viability of spheres (MDAMB231)
Kindly provide the numeric value in % only, without the unit symbol.

Example entries and their recorded answers appear below.
viability at 25 µM reading for O=C1C(Oc2ccc3c(c2)OCO3)=CC(=O)c2c(OCCCCN3CCOCC3)cccc21 : 17

viability at 25 µM reading for O=C1C(Oc2ccc3c(c2)OCO3)=CC(=O)c2c(OCCN3CCOCC3)cccc21 : 20

viability at 25 µM reading for COc1ccc(OC2=CC(=O)c3c(OCCCN4CCOCC4)cccc3C2=O)cc1 : 30

viability at 25 µM reading for COc1ccc(OC2=CC(=O)c3c(OCCN4CCOCC4)cccc3C2=O)cc1 : 21

viability at 25 µM reading for CCN(CC)CCNC(=O)COc1cccc2c1C(=O)C=C(Nc1ccc(OC)cc1)C2=O : 19

viability at 25 µM reading for O=C1C=C(N2CCOCC2)C(=O)c2c(OCCN3CCOCC3)cccc21 : 19

viability at 25 µM reading for O=C1C=C(Oc2ccc(F)cc2)C(=O)c2c(OCCN3CCOCC3)cccc21 : 15

viability at 25 µM reading for O=C1C(Oc2ccc(F)cc2F)=CC(=O)c2c(OCCN3CCOCC3)cccc21 : 12

Next:
viability at 25 µM reading for COc1ccc(NC2=CC(=O)c3c(OCCN4CCOCC4)cccc3C2=O)cc1 : 39

====

- Test system: MDAMB231
- Test name: In vitro sphere-forming assay (cancer stem cells), Mammosphere media
- Protocol conditions: Homo sapiens, MDA-MB-231, read-out: % Viability of spheres (MDAMB231)
Readout name: viability at 25 µM (%)
Kindly provide the numeric value in % only, without the unit symbol.

Example entries and their recorded answers appear below.
viability at 25 µM reading for O=C1C(c2ccc3c(c2)OCO3)=CC(=O)c2c(OCCCC(=O)N3CCOCC3)cccc21 [Formula 69] : 19

viability at 25 µM reading for O=C1C(c2ccc3c(c2)OCO3)=CC(=O)c2c(OCCCCN3CCOCC3)cccc21 [Formula 2] : 30

viability at 25 µM reading for O=C1C(Oc2ccc(F)cc2)=CC(=O)c2c(OCCCN3CCOCC3)cccc21 [Formula 78] : 35

viability at 25 µM reading for O=C1C=C(OCCCCN2CCOCC2)C(=O)c2ccccc21 [Formula 67] : 37

viability at 25 µM reading for O=C1C(c2ccc(F)cc2)=CC(=O)c2c(OCCN3CCOCC3)cccc21 [Formula 7] : 31

viability at 25 µM reading for COc1ccc(NC2=CC(=O)c3c(OCCCCN4CCOCC4)cccc3C2=O)cc1OC [Formula 41] : 19

New cases:
viability at 25 µM reading for O=C(O)CCCOc1cccc2c1C(=O)C=C(Nc1ccc3c(c1)OCO3)C2=O [Formula 70] : 24

viability at 25 µM reading for O=C1C=C(Oc2ccc3c(c2)OCO3)C(=O)c2c(OCCN3CCOCC3)cccc21 [Formula 79] : 19

viability at 25 µM reading for COc1ccc(NC2=CC(=O)c3c(OCCN4CCOCC4)cccc3C2=O)cc1OC [Formula 40] : 10
